Each entry below carries its reported GI50.
- Test system: MALME-3M melanoma
- EXPERIMENT_NOTES: NCI tumour cell line growth inhibition, 48 h

[
  {
    "MOLECULE": "COc1cc2ncnc(-n3ncc4cc(NC(=O)Nc5ccc(Cl)c(Cl)c5)ccc43)c2cc1OC",
    "GI50": "1.72 µM"
  },
  {
    "MOLECULE": "CC(C)c1nc(N(C)S(C)(=O)=O)nc(-c2ccc(F)cc2)c1/C=C/[C@@H](O)C[C@@H](O)CC(=O)O",
    "GI50": "> 100 µM"
  },
  {
    "MOLECULE": "CSc1ncc(Br)c(Sc2nc(N)nc3nc[nH]c23)n1",
    "GI50": "3.34 µM"
  }
]

For reference, reported GI50 for O=C1C2=C(C(=O)c3cnccc31)C1C=CC2CC1 (stereo unspecified) stands at 2.12 µM

For reference, reported GI50 for `Cc1cc(C)c2c(n1)sc1c(N)ncnc12` stands at > 25 µM

For reference, reported GI50 for CN(Cc1ccc(C(F)(F)F)cc1)CC(O)C(=O)Nc1ccc(Cl)cc1 (stereo unspecified) stands at 1.37 µM
